The measured values listed here are drawn from paper PMC11207571.

measuredTarget: cynomolgus monkey Mdr1 (Macaca fascicularis)
Sequence (Q8HZQ6 1-1283): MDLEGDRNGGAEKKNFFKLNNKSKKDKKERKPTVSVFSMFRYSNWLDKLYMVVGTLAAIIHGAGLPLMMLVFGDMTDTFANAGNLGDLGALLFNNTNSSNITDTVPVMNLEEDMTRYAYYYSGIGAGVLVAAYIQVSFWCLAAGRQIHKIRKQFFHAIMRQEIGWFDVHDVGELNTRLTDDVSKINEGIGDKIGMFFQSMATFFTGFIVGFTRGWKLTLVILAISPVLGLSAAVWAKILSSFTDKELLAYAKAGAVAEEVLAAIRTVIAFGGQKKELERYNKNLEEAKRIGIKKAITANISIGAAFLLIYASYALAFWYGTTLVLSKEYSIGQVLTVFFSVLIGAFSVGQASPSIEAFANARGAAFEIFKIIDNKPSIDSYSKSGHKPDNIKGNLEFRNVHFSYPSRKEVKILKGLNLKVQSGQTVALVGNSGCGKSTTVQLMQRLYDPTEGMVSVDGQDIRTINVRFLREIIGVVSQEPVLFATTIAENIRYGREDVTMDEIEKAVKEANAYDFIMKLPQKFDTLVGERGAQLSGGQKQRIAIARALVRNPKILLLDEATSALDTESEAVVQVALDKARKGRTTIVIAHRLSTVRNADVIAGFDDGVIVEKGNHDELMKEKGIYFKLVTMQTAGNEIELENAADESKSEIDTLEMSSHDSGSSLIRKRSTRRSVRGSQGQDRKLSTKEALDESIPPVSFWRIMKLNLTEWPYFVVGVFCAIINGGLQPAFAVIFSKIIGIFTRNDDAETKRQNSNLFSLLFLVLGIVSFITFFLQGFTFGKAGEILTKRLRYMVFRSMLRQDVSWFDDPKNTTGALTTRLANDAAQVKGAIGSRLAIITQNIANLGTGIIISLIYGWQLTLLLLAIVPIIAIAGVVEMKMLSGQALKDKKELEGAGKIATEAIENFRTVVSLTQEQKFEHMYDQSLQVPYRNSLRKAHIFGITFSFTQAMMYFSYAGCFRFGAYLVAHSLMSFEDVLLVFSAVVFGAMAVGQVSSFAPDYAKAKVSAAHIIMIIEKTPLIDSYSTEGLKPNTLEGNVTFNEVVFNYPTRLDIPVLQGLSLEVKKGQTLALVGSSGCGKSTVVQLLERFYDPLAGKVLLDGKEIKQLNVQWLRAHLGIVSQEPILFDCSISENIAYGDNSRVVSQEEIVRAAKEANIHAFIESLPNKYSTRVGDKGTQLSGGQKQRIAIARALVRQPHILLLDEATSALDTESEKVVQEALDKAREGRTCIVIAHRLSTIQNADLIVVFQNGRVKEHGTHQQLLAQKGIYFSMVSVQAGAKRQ
assayInfo: Inhibition of 3H-digoxin or 3H-quinidine bidirectional transport in cyMDR1 cells
conditionInfo: Inhibition of quinidine transport IC50±SD, cyMDR1, probe 3H-quinidine 0.1 µM, 60 min; IC50 from ER
// pIC50 lookup, one value per entry
Answer as the number alone; pIC50 is minus log10 of concentration in mol/L.

Examples from the recorded data:
COc1cc2c(cc1OC)CN(CCc1ccc(NC(=O)c3cccc4c(=O)c5cccc(OC)c5[nH]c34)cc1)CC2 | 6.96
O[C@@H](COc1cccc2ncccc12)CN1CCN([C@@H]2c3ccccc3[C@@H]3[C@H](c4ccccc42)C3(F)F)CC1 | 6.92

For `CCCc1nc2c(C)cc(-c3nc4ccccc4n3C)cc2n1Cc1ccc(-c2ccccc2C(=O)O)cc1` , what is its reported pIC50?
5.81

Which pIC50 value is on record for `CC(C)(C)NC(=O)[C@@H]1C[C@@H]2CCCC[C@@H]2CN1C[C@@H](O)[C@H](Cc1ccccc1)NC(=O)[C@H](CC(N)=O)NC(=O)c1ccc2ccccc2n1` ?
4.68

I am curious: what pIC50 value has been reported for CN(C)C(=O)C(CCN1CCC(O)(c2ccc(Cl)cc2)CC1)(c1ccccc1)c1ccccc1 [Loperamide] ?
5.87

====

measuredTarget: UniProtKB P08183
Sequence (P08183 whole entry): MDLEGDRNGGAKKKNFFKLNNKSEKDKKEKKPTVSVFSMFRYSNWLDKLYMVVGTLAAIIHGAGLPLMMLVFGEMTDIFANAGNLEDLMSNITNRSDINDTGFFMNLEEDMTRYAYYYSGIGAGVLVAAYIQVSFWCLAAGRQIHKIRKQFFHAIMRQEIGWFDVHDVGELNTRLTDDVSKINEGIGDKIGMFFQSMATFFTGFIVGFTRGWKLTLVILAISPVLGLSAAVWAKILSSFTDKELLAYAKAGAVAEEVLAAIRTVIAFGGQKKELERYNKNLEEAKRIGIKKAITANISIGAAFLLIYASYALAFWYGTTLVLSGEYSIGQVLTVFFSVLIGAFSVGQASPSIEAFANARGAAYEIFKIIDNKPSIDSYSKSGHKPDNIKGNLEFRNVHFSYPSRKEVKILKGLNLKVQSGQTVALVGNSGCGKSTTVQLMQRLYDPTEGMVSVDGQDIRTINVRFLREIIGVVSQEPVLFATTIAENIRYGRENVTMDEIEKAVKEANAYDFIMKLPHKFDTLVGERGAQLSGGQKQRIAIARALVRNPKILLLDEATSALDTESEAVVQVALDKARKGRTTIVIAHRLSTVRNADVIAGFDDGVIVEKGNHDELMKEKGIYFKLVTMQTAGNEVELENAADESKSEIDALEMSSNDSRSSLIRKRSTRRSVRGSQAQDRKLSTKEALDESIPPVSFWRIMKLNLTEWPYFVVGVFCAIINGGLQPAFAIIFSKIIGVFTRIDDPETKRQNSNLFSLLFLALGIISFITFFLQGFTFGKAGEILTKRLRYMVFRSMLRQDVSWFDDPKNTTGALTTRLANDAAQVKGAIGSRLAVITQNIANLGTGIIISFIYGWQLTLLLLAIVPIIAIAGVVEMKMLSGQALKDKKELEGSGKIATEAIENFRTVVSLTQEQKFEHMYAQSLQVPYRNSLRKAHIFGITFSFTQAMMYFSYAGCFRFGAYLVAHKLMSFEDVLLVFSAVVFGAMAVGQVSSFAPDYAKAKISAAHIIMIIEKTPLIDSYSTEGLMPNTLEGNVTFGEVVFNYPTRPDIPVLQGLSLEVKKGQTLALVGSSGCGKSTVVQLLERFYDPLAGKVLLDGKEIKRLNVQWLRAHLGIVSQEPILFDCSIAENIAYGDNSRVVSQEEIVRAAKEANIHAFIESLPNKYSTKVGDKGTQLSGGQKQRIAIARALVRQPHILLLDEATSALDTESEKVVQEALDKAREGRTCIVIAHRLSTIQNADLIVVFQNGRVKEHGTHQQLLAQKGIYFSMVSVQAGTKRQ
assayInfo: Bidirectional transport assay, efflux ratio in Abcb1KO-MDCKII hMDR1 cells
conditionInfo: human, MDCK-MDR1, pH 7.4
outcomeMeasure: efflux ratio at 120 min, 1 µM
A bare number is all that is needed in reply.

Worked cases, efflux ratio at 120 min, 1 µM given:
COc1ccccc1OCCNCC(O)COc1cccc2[nH]c3ccccc3c12 (stereo not shown) [Carvedilol] | 14.5
CN(C)CCC(c1ccccc1)c1ccccn1 (stereo not shown) [Pheniramine] | 1.45
Cc1cccc(C)c1OCC(C)N (stereo not shown) [Mexiletine] | 0.44
CN(C)CCCN1c2ccccc2CCc2ccccc21 [Imipramine] | 1.08

Sample C[C@]12C=CC(=O)C=C1CC[C@@H]1[C@@H]2C(=O)C[C@@]2(C)[C@H]1CC[C@]2(O)C(=O)CO [Prednisone] — what was its efflux ratio at 120 min, 1 µM?
17.3

Consider the molecule shown here: CCN1CCCC1CNC(=O)c1cc(S(=O)(=O)CC)c(N)cc1OC (stereo not shown) [Amisulpride] What is its recorded efflux ratio at 120 min, 1 µM?
18.7

Value lookup for efflux ratio at 120 min, 1 µM; key = O=c1n(CCCN2CCN(c3cccc(Cl)c3)CC2)nc2ccccn12 [Trazodone]
1.71

Given the entry CC(C)N(CCC(C(N)=O)(c1ccccc1)c1ccccn1)C(C)C (stereo not shown) [Disopyramide] , report its measured efflux ratio at 120 min, 1 µM.
34.7

Entry under review: NC(N)=Nc1nc(CSCCC(N)=NS(N)(=O)=O)cs1 [Famotidine] . Reported efflux ratio at 120 min, 1 µM?
1.08

// query efflux ratio at 120 min, 1 µM value for entry Cn1c(=O)c2c(ncn2C)n(C)c1=O [Caffeine]
0.81

Quick one: efflux ratio at 120 min, 1 µM for Cc1ncc2n1-c1ccc(Cl)cc1C(c1ccccc1F)=NC2 [Midazolam] ?
0.53

Entry CC/C(=C(\c1ccccc1)c1ccc(OCCN(C)C)cc1)c1ccccc1 [Tamoxifen] has what efflux ratio at 120 min, 1 µM?
1.65

Entry under review: CN/C(=N/CCSCc1nc[nH]c1C)NC#N [Cimetidine] . Reported efflux ratio at 120 min, 1 µM?
6.98

Fill blank: measured efflux ratio at 120 min, 1 µM of the molecule Cc1ccc(-c2ncc(Cl)cc2-c2ccc(S(C)(=O)=O)cc2)cn1 [Etoricoxib] is ____.
1.97
